# experimentSummary: Measurement of logP values by HPLC on reversed phase columns (EEC directive 79/831 Annex V.A8)
# Format: physicochemical
# reportedConditions: pH 2.7
attributeMeasured: logP

INSERT INTO results (compound, resultvalue) VALUES
  ('CCC(C)N(C)C(=O)c1cc(-c2ccnc(Nc3ccnc(Cl)c3)n2)ccn1 (stereo not drawn)', 2.47),
  ('COCCNC(=O)c1cc(-c2ncnc(Nc3cccc(Cl)c3)n2)ccn1', 2.84),
  ('CCN(CC)C(=O)c1cc(-c2ncnc(Nc3cccc(C#N)c3)n2)ccn1', 2.45);

* * *

# experimentSummary: Measurement of logP values by HPLC on reversed phase columns (EEC directive 79/831 Annex V.A8)
# Assay type: physicochemical
# reportedConditions: pH 2.7
attributeMeasured: logP

INSERT INTO results (molecule, resultvalue) VALUES
  ('O=C(NC1CCCC1)c1cc(-c2ncnc(Nc3cccc(Cl)c3)n2)ccn1', 4.03),
  ('CN(CCC#N)C(=S)c1cc(-c2ncnc(Nc3cccc(Cl)c3)n2)ccn1', 3.02),
  ('CN(CCC#N)C(=O)c1cc(-c2ncnc(Nc3cc(F)ccc3F)n2)ccn1', 2.1),
  ('CCC(COC)NC(=O)c1cc(-c2ncnc(Nc3cccc(Cl)c3)n2)ccn1 (stereo not shown)', 3.8);

(P) NC(=S)c1cc(-c2ncnc(Nc3cccc(F)c3)n2)ccn1
(Q) Cc1ccc(Nc2ncnc(-c3ccnc(C(=O)NCC4CC4)c3)n2)cc1Cl
Form: Entry with minimum logP (choose one): P / Q Give the label of your selection.
P

(a) COCCNC(=O)c1cc(-c2ncnc(Nc3ccc(C)c(Cl)c3)n2)ccn1
(b) CN(CC1CCCO1)C(=O)c1cc(-c2ccnc(Nc3ccnc(Cl)c3)n2)ccn1 (stereo not shown)
Please choose the item with the lower logP value from this pair: a and b Identify your pick by its label.
b
(b: 1.99, a: 3.48)

* * *

# experimentSummary: Measurement of logP values by HPLC on reversed phase columns (EEC directive 79/831 Annex V.A8)
# Format: physicochemical
# reportedConditions: pH 2.7
attributeMeasured: logP

INSERT INTO measurements (compound, resultvalue) VALUES
  ('COC[C@H](C)NC(=O)c1cc(-c2ncnc(Nc3cccc(Cl)c3)n2)ccn1 [B52]', 3.39);

(P) O=C(c1cc(Nc2nccc(-c3ccnc(C(=O)N4CCCCC4)c3)n2)ccn1)N1CCCCC1 [Example A6]
(Q) O=C(NCCC(F)(F)F)c1cc(-c2ncnc(Nc3cccc(Cl)c3)n2)ccn1 [B121]
Of the pair P and Q , name the member with the lesser recorded logP. Write down the label attached to your selection.
P

* * *

# experimentSummary: Measurement of logP values by HPLC on reversed phase columns (EEC directive 79/831 Annex V.A8)
# Assay type: physicochemical
# reportedConditions: pH 2.7
attributeMeasured: logP

INSERT INTO assay_data (compound, attributemeasured, resultvalue) VALUES
  ('CN(CCC#N)C(=O)c1cc(-c2ncnc(Nc3ccc(F)c(F)c3)n2)ccn1', 'logP', 2.35),
  ('CN(C)C(=O)c1cc(-c2ncnc(Nc3ccsc3)n2)ccn1', 'logP', 1.86),
  ('CCCCN(CC)C(=O)c1cc(-c2ncnc(Nc3ccc(OC)nc3)n2)ccn1', 'logP', 2.78),
  ('CCCN(C)C(=S)c1cc(-c2ncnc(Nc3cccc(COC)c3)n2)ccn1', 'logP', 3.05),
  ('CCN(CC)C(=O)c1cc(-c2ncnc(Nc3ccc(C)c(Cl)c3)n2)ccn1', 'logP', 3.44),
  ('CCN(CC)C(=O)c1cc(-c2ncnc(Nc3cccc(C(F)F)c3)n2)ccn1', 'logP', 2.73),
  ('Cc1ccc(Nc2ncnc(-c3ccnc(C(=O)NC4CCC4)c3)n2)cc1Cl', 'logP', 4.29),
  ('CC(CN(C)C)NC(=O)c1cc(-c2ncnc(Nc3cccc(Cl)c3)n2)ccn1 (stereo not shown)', 'logP', 1.72);

(a) COCC(C)NC(=O)c1cc(-c2ncnc(Nc3ccc(F)c(Cl)c3)n2)ccn1 (stereo not shown)
(b) CN(C)C(=O)c1cc(-c2ncnc(Nc3ccccc3)n2)ccn1
// task: argmin of logP over [ a , b ] Your answer should be the label of the entry you select.
b

* * *

# experimentSummary: Measurement of logP values by HPLC on reversed phase columns (EEC directive 79/831 Annex V.A8)
# Format: physicochemical
# reportedConditions: pH 2.7
attributeMeasured: logP

INSERT INTO assay_data (structuresmilesstring, resultvalue) VALUES
  ('CN(CC(F)F)C(=O)c1cc(-c2ncnc(Nc3ccc(Cl)c(C(F)F)c3)n2)ccn1', 3.19),
  ('CC(C)(C)NC(=O)c1cc(-c2ncnc(Nc3cccc(Cl)c3)n2)ccn1', 4.39),
  ('CN(CC1CC1)C(=O)c1cc(-c2ncnc(Nc3cccc(OC(F)F)c3)n2)ccn1', 2.98),
  ('CN(CC1CC1)C(=O)c1cc(-c2ncnc(Nc3cccc(OC(F)(F)F)c3)n2)ccn1', 3.48),
  ('CCN(C)C(=O)c1cc(-c2ncnc(Nc3cccc(OC)c3)n2)ccn1', 2.26);

* * *

# experimentSummary: Measurement of logP values by HPLC on reversed phase columns (EEC directive 79/831 Annex V.A8)
# Type: physicochemical
# reportedConditions: pH 2.7
attributeMeasured: chromatographic logP

INSERT INTO assay_data (compound, attributemeasured, resultvalue) VALUES
  ('CC(=O)N(c1ccccc1)c1ncnc(-c2ccnc(C(=S)N(C)CC3CC3)c2)n1 [Example B344]', 'chromatographic logP', 3.02);

(I) C#CCN(c1ccccc1)c1ncnc(-c2ccnc(C(=O)N(C)CC3CC3)c2)n1 [Example B402]
(II) CON(C)C(=O)c1cc(-c2ncnc(Nc3ccsc3)n2)ccn1 [Example C30]
Name the one with the greater chromatographic logP value, either I or II as given. Pick one; state its label.
I

* * *

# experimentSummary: Measurement of logP values by HPLC on reversed phase columns (EEC directive 79/831 Annex V.A8)
# Type: physicochemical
# reportedConditions: pH 2.7
attributeMeasured: logP

INSERT INTO measurements (compound, resultvalue) VALUES
  ('CC(C)=CCN(C)C(=O)c1cc(-c2ccnc(Nc3ccnc(Cl)c3)n2)ccn1', 2.66);

(I) O=C(c1cc(-c2ccnc(Nc3ccnc(Cl)c3)n2)ccn1)N1CCCC(CO)C1 (centres unmarked)
(II) CCC(CC#N)NC(=O)c1cc(-c2ncnc(Nc3cccc(Cl)c3)n2)ccn1 (centres unmarked)
Higher logP between I and II ? Lab log: write the label of the selected item as the result.
II

(I) CC(C)CCNC(=O)c1cc(-c2ncnc(Nc3cccc(Cl)c3)n2)ccn1
(II) CCCN(CCO)C(=O)c1cc(-c2ccnc(Nc3ccnc(Cl)c3)n2)ccn1
Which item exceeds the other in logP, I or II ? Refer to your chosen entry by its label in the reply.
I

* * *

# experimentSummary: Measurement of logP values by HPLC on reversed phase columns (EEC directive 79/831 Annex V.A8)
# Assay type: physicochemical
# reportedConditions: pH 2.7
attributeMeasured: logP

Solved entries (count: 10):
INSERT INTO assay_data (compound, attributemeasured, resultvalue) VALUES
  ('CN(CCC#N)C(=O)c1cc(-c2ccnc(Nc3ccnc(Cl)c3)n2)ccn1', 'logP', 1.78),
  ('O=C(NC1CCS(=O)(=O)C1)c1cc(-c2ncnc(Nc3cccc(Cl)c3)n2)ccn1 (stereo not drawn)', 'logP', 2.66),
  ('CCC(=NOC)c1cc(-c2ncnc(Nc3cccc(Cl)c3)n2)ccn1 (mixture of isomers)', 'logP', 4.81),
  ('CCCN(C)C(=O)c1cc(-c2ncnc(Nc3ccc(F)c(Cl)c3)n2)ccn1', 'logP', 3.13),
  ('CN(C)C(=O)c1cc(-c2ncnc(Nc3cccc(F)c3)n2)ccn1', 'logP', 2.13),
  ('CCCCCN(C)C(=O)c1cc(-c2ncnc(Nc3cccc(Cl)c3)n2)ccn1', 'logP', 3.89),
  ('CN(CC(F)F)C(=S)c1cc(-c2ncnc(Nc3ccc(F)c(C(F)F)c3)n2)ccn1', 'logP', 3.35),
  ('CCCN(C)C(=O)c1cc(-c2ncnc(Nc3ccc(F)cc3)n2)ccn1', 'logP', 2.62),
  ('COc1ccc(CON=C(C)c2cc(-c3ncnc(Nc4cccc(Cl)c4)n3)ccn2)cc1 (mixture of isomers)', 'logP', 4.96),
  ('CCN(C)C(=S)c1cc(-c2ncnc(Nc3ccsc3)n2)ccn1', 'logP', 2.68);

(a) CC1(C)CCCN(C(=O)c2cc(-c3ncnc(Nc4cccc(Cl)c4)n3)ccn2)C1
(b) CN(C)C(=S)c1cc(-c2ncnc(Nc3cccc(C(F)F)c3)n2)ccn1
Compare a and b and name the one whose reported logP is smaller. Answer format: the label of the selected item.
b

* * *

# experimentSummary: Measurement of logP values by HPLC on reversed phase columns (EEC directive 79/831 Annex V.A8)
# Format: physicochemical
# reportedConditions: pH 2.7
attributeMeasured: logP

INSERT INTO assay_data (compound, resultvalue) VALUES
  ('CC(=O)N(c1ccsc1)c1ncnc(-c2ccnc(C(=O)N(C)CCC#N)c2)n1', 1.78);

(1) CCN(CC(C)(C)O)C(=O)c1cc(-c2ncnc(Nc3cccc(Cl)c3)n2)ccn1
(2) CC(C)CC(=O)O/N=C(/N)c1cc(-c2ncnc(Nc3cccc(Cl)c3)n2)ccn1
When 1 and 2 are compared, which has the higher number for logP? Kindly state the label of the option you pick.
2

(I) CCN(C)C(=S)c1cc(-c2ncnc(Nc3cccc(C(F)F)c3)n2)ccn1
(II) CCC(=NOCc1ccccc1)c1cc(-c2ncnc(Nc3cccc(Cl)c3)n2)ccn1 (mixture of isomers)
(III) CC(=O)Nc1cccc(Nc2ncnc(-c3ccnc(C(=O)N(C)C(C)C)c3)n2)c1
Arrange items by their logP values in increasing order. // list labels; follow requested order
III, I, II
(III: 1.81, I: 2.94, II: 5.65)

(A) CSc1cccc(Nc2ncnc(-c3ccnc(C(=O)NCCCN4CCCCCC4=O)c3)n2)c1
(B) CCCC#CCON=C(CC)c1cc(-c2ncnc(Nc3cccc(Cl)c3)n2)ccn1 (mixture of isomers)
Pick one: A or B . Which one has the lower reported logP? Kindly give the label for the entry you pick.
A
